biological target: Guanine nucleotide-binding protein G(i) subunit alpha-1 (Homo sapiens, UniProt P63096); assay: Percent stimulation of [35S]GTP-gamma-S, binding to G alpha i1 at 5E-5 M of basal for 30 minutes; assay type: functional
Sequence (P63096 whole entry): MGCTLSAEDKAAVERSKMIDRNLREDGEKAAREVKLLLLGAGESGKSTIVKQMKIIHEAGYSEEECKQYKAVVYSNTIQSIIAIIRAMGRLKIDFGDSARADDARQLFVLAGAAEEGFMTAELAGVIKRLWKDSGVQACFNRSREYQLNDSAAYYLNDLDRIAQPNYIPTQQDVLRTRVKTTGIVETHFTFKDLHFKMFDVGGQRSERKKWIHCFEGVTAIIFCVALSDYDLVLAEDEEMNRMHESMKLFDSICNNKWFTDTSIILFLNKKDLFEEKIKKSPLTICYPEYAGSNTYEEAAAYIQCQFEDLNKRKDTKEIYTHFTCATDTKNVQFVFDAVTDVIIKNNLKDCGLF
Listing: Stimulation of selected molecules

> print(dat)
                             molecule  recordedmeasurement
1       COc1ccccc1CN1CCC(C2CCNCC2)CC1                  60%
2  CCCCCCCCCCCCCCCNC(=O)C1CCN(CCN)CC1                2630%
3       CCCCCCCCCCCCCCCNC(=O)C1CCNCC1                 973%
4            CCCCCCCCCCCCCCCNN1CCNCC1                5060%
5           CCCCCCCCCCCCCCCNCC1CCNCC1                2460%

Exercise: Note Stimulation for the molecule shown: `CCCCCCCCCCCCCCCN1CCC(NC2CCNCC2)CC1`
Key: 1540%

Exercise: Note Stimulation for the molecule shown: `CCCCCCCCCCCCCCCNCC1CCN(CCN)CC1`
Key: 825%

---

molecular target: Guanine nucleotide-binding protein G(o) subunit alpha (Homo sapiens, UniProt P09471); assay: Percent stimulation of [35S]GTP-gamma-S, binding to G alpha o1 at 5E-5 M of basal for 30 minutes; type: functional
Sequence (P09471 2-354 limits assumed): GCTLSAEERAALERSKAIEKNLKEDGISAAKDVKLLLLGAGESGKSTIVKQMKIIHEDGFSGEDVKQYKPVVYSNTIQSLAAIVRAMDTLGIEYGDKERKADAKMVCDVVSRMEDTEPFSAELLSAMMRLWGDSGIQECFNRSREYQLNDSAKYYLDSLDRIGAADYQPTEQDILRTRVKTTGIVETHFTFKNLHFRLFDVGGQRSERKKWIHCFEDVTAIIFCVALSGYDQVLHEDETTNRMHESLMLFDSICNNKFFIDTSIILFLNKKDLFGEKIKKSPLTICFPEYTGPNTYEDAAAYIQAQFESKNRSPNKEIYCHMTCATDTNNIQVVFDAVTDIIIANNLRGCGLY
Threshold rule: Stimulation greater than or equal to 1000% is yes; below that, no.

Would you please look over these solved cases?
> print(dat)
                                 compound  labelvalue
1  CCCCCCCCCCCCCCCCCN1CCC(C2CCN(C)CC2)CC1          no
2      CCCCCCCCCCCCCCCN1CCC(NC2CCNCC2)CC1         yes
3            CCCCCCCCCCCCCCC(=O)NN1CCNCC1         yes
4     CCCCCCCCCCCCCCCCCN1CCC(C2CCNCC2)CC1         yes
5              CCCCCCCCCCCCCCCN1CCC(N)CC1         yes

We now examine a further compound.
Exercise: Determine whether measured Stimulation meets or exceeds 1000% for CCCCCCCCCCCCNC(=O)C(N)CCCCN (stereo unspecified)
Key: yes

---

molecular target: Guanine nucleotide-binding protein G(i) subunit alpha-3 (Homo sapiens); assay: Percent stimulation of [35S]GTP-gamma-S, binding to G alpha i3 at 5E-5 M of basal for 30 minutes; type: functional
Sequence (P08754 whole entry): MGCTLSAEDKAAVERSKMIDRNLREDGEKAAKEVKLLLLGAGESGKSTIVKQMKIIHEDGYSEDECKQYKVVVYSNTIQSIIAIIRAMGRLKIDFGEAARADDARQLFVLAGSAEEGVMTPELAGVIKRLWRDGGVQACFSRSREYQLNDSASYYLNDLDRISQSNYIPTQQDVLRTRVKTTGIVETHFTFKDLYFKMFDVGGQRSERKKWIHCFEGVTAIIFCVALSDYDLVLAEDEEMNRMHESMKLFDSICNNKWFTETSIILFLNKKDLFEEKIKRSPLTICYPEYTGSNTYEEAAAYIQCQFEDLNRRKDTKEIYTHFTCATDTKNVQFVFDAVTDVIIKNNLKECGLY
// boundary case: Stimulation equal to 3000% maps to rule not met; strictly smaller maps to rule met

Would you please look over these solved cases?
> print(dat)
                                   molecule  labelvalue
1            CCCCCCCCCCCCCCC(=O)N1CCC(N)CC1    rule met
2  CCCCCCCCCCCCCCC[N+]1(C)CCC(C2CCNCC2)CC1 (stereo not drawn)    rule met
3                CCCCCCCCCCCCCCCN1CCN(N)CC1    rule met

Exercise: Report whether reported Stimulation is lower than 3000% (strictly) for `CCCCCCCCCCCCCCCCCN1CCC(C2CCNCC2)CC1`
Key: rule not met

Exercise: Report whether reported Stimulation is lower than 3000% (strictly) for `CCCCCCCCCCCCCCCNC1CCNCC1`
Key: rule not met

Exercise: Report whether reported Stimulation is lower than 3000% (strictly) for `CCCCCCCCCCCCCCCNC(=O)C1CCN(CCNC=O)CC1`
Key: rule not met

Exercise: Report whether reported Stimulation is lower than 3000% (strictly) for `CCCCCCCCCCCCCNC1CCNCC1`
Key: rule met

Exercise: Report whether reported Stimulation is lower than 3000% (strictly) for `CCCCCCCCCCCCCCCNC(=O)C1CCN(CCN)CC1`
Key: rule met
